Cited source: ChEMBL document CHEMBL3885881

species: Rattus norvegicus; test: DrugMatrix - Regimen: Daily Repeat; format: toxicity, organism-based, Sprague-Dawley; parameters: regimen Daily Repeat, gender Male, age 6-8 weeks; conditions: in vivo, po, 0 mg/kg, 72 h, tissue Plasma, route oral GAVAGE, dose level Control, time 3 day, […]
# label = true if CREATINE PHOSPHOKINASE >= 400 u/L else false

>>> classification("CCCCCCCCc1ccc(O)cc1")
"false"
>>> classification("COc1ccc2[nH]c([S+]([O-])Cc3ncc(C)c(OC)c3C)nc2c1 (stereo unspecified)")
"false"
>>> classification("CC(=O)Nc1ccc(O)cc1")
"false"
>>> classification("COCCOC(=O)C1=C(C)NC(C)=C(C(=O)OC(C)C)C1c1cccc([N+](=O)[O-])c1 (stereo unspecified)")
"false"
>>> classification("Clc1ccc(Cl)cc1")
"false"
>>> classification("CCOC(=O)C(C)(C)Oc1ccc(Cl)cc1 [CLOFIBRATE]")
"false"
>>> classification("CC/C(=C(/CC)c1ccc(O)cc1)c1ccc(O)cc1")
"false"
>>> classification("CCOC(=O)C1=C(C)NC(C)=C(C(=O)OC)C1c1cccc([N+](=O)[O-])c1 (stereo unspecified)")
"false"
>>> classification("C[C@H]1O[C@@H](O[C@H]2[C@@H](O)C[C@H](O[C@H]3[C@@H](O)C[C@H](O[C@H]4CC[C@@]5(C)[C@H](CC[C@@H]6[C@@H]5CC[C@]5(C)[C@@H](C7=CC(=O)OC7)CC[C@]65O)C4)O[C@@H]3C)O[C@@H]2C)C[C@H](O)[C@@H]1O")
"false"
>>> classification("S=C=Nc1cccc2ccccc12 [1-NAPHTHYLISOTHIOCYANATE]")
"true"
>>> classification("CC(C)(Oc1ccc(C2CCCc3ccccc32)cc1)C(=O)O (stereo unspecified)")
"true"
>>> classification("O=C(O)Cc1ccccc1Nc1c(Cl)cccc1Cl")
"false"
>>> classification("CC(C)Cc1ccc(C(C)C(=O)O)cc1 (stereo unspecified)")
"false"
>>> classification("CC(=O)Nc1cccc(O)c1")
"true"
